Values from patent US8916565B2

- study system: UniProt Q15858
- Sequence (Q15858 whole entry): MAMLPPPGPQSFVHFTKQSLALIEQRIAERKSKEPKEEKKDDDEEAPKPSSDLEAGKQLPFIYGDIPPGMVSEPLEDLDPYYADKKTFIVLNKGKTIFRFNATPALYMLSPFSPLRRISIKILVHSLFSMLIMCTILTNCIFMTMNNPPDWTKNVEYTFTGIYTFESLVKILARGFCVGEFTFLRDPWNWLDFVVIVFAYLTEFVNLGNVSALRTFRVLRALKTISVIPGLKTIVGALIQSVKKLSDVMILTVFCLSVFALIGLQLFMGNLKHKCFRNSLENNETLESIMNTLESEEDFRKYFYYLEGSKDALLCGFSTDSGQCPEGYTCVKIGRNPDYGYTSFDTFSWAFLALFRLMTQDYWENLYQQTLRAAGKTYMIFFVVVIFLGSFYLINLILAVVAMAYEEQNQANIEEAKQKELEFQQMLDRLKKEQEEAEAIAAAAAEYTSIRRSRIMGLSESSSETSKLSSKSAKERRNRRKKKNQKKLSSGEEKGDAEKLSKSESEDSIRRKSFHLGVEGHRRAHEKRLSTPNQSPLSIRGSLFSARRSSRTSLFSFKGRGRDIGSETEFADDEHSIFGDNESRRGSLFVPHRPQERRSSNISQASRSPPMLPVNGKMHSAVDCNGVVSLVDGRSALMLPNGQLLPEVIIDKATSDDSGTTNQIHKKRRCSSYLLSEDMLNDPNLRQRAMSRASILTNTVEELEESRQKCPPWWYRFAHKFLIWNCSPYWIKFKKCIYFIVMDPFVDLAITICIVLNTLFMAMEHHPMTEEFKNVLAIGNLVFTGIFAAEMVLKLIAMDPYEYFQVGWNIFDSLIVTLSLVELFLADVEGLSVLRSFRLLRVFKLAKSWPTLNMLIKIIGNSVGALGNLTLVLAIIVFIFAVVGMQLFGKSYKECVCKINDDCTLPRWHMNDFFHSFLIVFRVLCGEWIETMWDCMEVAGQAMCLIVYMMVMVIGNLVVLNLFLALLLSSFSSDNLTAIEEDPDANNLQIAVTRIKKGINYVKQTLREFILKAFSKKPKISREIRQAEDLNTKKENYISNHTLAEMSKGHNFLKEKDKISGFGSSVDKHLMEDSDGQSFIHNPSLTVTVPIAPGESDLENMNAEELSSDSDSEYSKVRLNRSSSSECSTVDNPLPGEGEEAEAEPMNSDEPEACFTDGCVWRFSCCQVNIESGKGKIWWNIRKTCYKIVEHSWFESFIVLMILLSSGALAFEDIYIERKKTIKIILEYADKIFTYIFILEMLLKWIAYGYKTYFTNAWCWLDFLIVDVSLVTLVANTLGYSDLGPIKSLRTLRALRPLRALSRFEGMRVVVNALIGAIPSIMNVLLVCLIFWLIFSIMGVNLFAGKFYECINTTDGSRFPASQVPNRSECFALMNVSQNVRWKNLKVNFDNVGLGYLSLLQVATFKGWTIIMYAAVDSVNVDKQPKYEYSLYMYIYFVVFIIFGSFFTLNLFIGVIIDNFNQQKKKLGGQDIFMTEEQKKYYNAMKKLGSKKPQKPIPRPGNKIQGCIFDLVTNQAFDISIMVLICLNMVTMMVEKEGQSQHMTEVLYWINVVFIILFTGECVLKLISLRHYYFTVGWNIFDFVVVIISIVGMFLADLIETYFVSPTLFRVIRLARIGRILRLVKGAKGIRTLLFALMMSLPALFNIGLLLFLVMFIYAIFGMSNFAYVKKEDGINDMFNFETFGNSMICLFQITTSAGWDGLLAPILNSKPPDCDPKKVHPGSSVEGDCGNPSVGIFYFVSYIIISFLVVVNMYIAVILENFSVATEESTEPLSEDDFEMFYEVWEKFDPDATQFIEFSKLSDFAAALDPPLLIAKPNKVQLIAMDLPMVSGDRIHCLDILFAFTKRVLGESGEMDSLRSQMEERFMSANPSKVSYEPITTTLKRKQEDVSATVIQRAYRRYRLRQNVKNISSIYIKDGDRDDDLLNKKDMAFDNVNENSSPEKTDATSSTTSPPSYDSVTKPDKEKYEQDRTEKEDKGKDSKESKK
- assay text: E-VIPR optical membrane potential assay with electrical stimulation
- Format: cell-based
- condition parameters: active against one or more sodium channels; Table 3 does not name the assay or NaV subtype; read-out: Binned Activity Data (IC50)
Parameter IC50: see the listing below.

CC(C)Oc1ccc(C(=O)N2CCC3(CC2)NC(C)(C)Cn2c(C(=O)C(F)(F)F)ccc23)c(F)c1: ≤ 2000 nM

Prompt: Name the reported IC50 value associated with the compound Cc1cc(C(=O)N2CCC3(CC2)c2ccc(C(=O)C4CC4)n2CCN3C)ccc1OC(C)C
Response: ≤ 2000 nM

Prompt: Name the reported IC50 value associated with the compound COc1cc(C(=O)N2CCC3(CC2)c2ccc(C(F)(F)F)n2CCN3C)cc(F)c1OC(C)C
Response: ≤ 2000 nM
